target.desc: GABA-A receptor; anion channel
assay.explanation: Displacement of [3H]flunitrazepam from GABA-A benzodiazepine receptor of rat cortical membranes
experimental.endpoint: Ki (nM)

>>> recorded_number("O=C1OCc2cccc3c2N1Cc1c(-c2noc(C4CC4)n2)ncn1-3")
21
>>> recorded_number("CC1(C)CC(=O)N2Cc3c(-c4noc(C5CC5)n4)ncn3-c3cccc1c32")
9.9
>>> recorded_number("CN1Cc2cccc3c2N(Cc2c(-c4noc(C5CC5)n4)ncn2-3)C1=O")
3.7
>>> recorded_number("CC(C)(C)OC(=O)N1CC(=O)N2Cc3c(-c4noc(C5CC5)n4)ncn3-c3cccc1c32")
579
>>> recorded_number("COn1c(=O)n2c3c(cccc31)-n1cnc(-c3noc(C4CC4)n3)c1C2")
7.3
>>> recorded_number("O=C1COc2cccc3c2N1Cc1c(-c2noc(C4CC4)n2)ncn1-3")
2
>>> recorded_number("CC(C)N1Cc2cccc3c2N(Cc2c(-c4noc(C5CC5)n4)ncn2-3)C1=O")
1.2
>>> recorded_number("O=C1CCc2cccc3c2N1Cc1c(-c2noc(C4CC4)n2)ncn1-3")
2.6
>>> recorded_number("O=C1CNc2cccc3c2N1Cc1c(-c2noc(C4CC4)n2)ncn1-3")
19
>>> recorded_number("O=C1CC(c2ccccc2)c2cccc3c2N1Cc1c(-c2noc(C4CC4)n2)ncn1-3 (stereo not given)")
25

###

target.desc: GABA-A receptor; alpha-1/beta-2/gamma-2 (Homo sapiens) (UniProt P14867+P47870+P18507)
assay.explanation: In vitro efficacy for GABA-A alpha-1-beta-2-gamma-2 subtype expressed in A293 cells in Cl- current assay
Format: functional, cell-based
test.parameters: Rattus norvegicus; HEK293
Recorded Activity determines the label; the label ranges are label 0: < 0.3; label 1: ≥ 0.3 and < 0.7; label 2: ≥ 0.7

>>> label_class("O=C1CC(c2ccccc2)c2cccc3c2N1Cc1c(-c2noc(C4CC4)n2)ncn1-3 (stereo not given)")
"label 2"
>>> label_class("O=C1CCc2cccc3c2N1Cc1c(-c2noc(C4CC4)n2)ncn1-3")
"label 0"
>>> label_class("CC1(C)CC(=O)N2Cc3c(-c4noc(C5CC5)n4)ncn3-c3cccc1c32")
"label 2"
>>> label_class("CN1C(=O)CN=C(c2ccccc2)c2cc(Cl)ccc21 [DIAZEPAM]")
"label 2"
>>> label_class("CC(C)n1c(=O)c2c(-c3noc(C4CC4)n3)ncn2c2ccccc21 [PANADIPLON]")
"label 0"
>>> label_class("O=C1CCC2c3c(-c4noc(C5CC5)n4)ncn3-c3ccccc3N12 (stereo not given)")
"label 0"
>>> label_class("O=C1CNc2cccc3c2N1Cc1c(-c2noc(C4CC4)n2)ncn1-3")
"label 1"
>>> label_class("CC(C)(C)OC(=O)N1CC(=O)N2Cc3c(-c4noc(C5CC5)n4)ncn3-c3cccc1c32")
"label 1"
>>> label_class("O=C1OCc2cccc3c2N1Cc1c(-c2noc(C4CC4)n2)ncn1-3")
"label 1"
>>> label_class("CC(C)N1Cc2cccc3c2N(Cc2c(-c4noc(C5CC5)n4)ncn2-3)C1=O")
"label 1"

###

target.desc: GABA-A receptor; anion channel (Rattus norvegicus) (UniProt O09028+P15431+P18506+P18508+P19969+P20236+P23574+P23576+P28471+P28473+P30191+P62813+P63079+P63138+Q91ZM7+Q9ES14)
assay.explanation: Binding to GABA-A receptor complex relative to TBPS binding to picrotoxin convulsant site
Format: functional
Okay, here is how we bin by Ratio: low bracket (below 0.4), middle bracket (0.4 to below 0.7), high bracket (0.7 or more)

>>> label_class("O=C1CCC2c3c(-c4noc(C5CC5)n4)ncn3-c3ccccc3N12 (configuration not stated)")
"high bracket"
>>> label_class("O=C1CNc2cccc3c2N1Cc1c(-c2noc(C4CC4)n2)ncn1-3")
"middle bracket"
>>> label_class("O=C1CC(c2ccccc2)c2cccc3c2N1Cc1c(-c2noc(C4CC4)n2)ncn1-3 (configuration not stated)")
"high bracket"
>>> label_class("CC1(C)CC(=O)N2Cc3c(-c4noc(C5CC5)n4)ncn3-c3cccc1c32")
"high bracket"
>>> label_class("O=C1OCc2cccc3c2N1Cc1c(-c2noc(C4CC4)n2)ncn1-3")
"middle bracket"
>>> label_class("CC(C)(C)OC(=O)N1CC(=O)N2Cc3c(-c4noc(C5CC5)n4)ncn3-c3cccc1c32")
"middle bracket"
>>> label_class("O=C1CCc2cccc3c2N1Cc1c(-c2noc(C4CC4)n2)ncn1-3")
"low bracket"
>>> label_class("O=C1COc2cccc3c2N1Cc1c(-c2noc(C4CC4)n2)ncn1-3")
"low bracket"
>>> label_class("CN1Cc2cccc3c2N(Cc2c(-c4noc(C5CC5)n4)ncn2-3)C1=O")
"low bracket"

###

target.desc: GABA A receptor alpha-6/beta-2/gamma-2 (Rattus norvegicus, UniProt P18508+P30191+P63138)
Sequence (P18508 whole entry): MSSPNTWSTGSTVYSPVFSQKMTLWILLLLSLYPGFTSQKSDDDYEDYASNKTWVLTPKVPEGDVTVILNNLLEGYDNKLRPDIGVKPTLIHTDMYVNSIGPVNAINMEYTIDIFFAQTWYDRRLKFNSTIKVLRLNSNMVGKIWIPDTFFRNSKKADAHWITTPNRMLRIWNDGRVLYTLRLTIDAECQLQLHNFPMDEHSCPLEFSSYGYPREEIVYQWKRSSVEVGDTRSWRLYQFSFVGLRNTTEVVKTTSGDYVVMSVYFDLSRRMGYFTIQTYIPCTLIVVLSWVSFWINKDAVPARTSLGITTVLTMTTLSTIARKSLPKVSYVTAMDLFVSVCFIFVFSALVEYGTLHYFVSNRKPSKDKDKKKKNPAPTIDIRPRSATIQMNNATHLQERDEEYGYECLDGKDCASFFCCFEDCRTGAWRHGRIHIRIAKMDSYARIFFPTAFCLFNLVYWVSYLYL
Sequence (P30191 whole entry): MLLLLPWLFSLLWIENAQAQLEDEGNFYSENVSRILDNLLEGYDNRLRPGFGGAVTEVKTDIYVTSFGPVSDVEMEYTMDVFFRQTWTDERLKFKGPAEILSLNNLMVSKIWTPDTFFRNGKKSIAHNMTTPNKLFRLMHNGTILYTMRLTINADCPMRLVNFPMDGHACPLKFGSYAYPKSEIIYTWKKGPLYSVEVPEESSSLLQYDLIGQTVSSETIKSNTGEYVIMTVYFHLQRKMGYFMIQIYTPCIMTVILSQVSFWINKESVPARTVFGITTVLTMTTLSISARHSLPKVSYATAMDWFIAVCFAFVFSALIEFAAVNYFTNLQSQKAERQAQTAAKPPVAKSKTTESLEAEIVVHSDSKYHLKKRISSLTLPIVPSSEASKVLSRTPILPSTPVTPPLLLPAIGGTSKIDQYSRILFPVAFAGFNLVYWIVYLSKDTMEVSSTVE
Sequence (P63138 whole entry): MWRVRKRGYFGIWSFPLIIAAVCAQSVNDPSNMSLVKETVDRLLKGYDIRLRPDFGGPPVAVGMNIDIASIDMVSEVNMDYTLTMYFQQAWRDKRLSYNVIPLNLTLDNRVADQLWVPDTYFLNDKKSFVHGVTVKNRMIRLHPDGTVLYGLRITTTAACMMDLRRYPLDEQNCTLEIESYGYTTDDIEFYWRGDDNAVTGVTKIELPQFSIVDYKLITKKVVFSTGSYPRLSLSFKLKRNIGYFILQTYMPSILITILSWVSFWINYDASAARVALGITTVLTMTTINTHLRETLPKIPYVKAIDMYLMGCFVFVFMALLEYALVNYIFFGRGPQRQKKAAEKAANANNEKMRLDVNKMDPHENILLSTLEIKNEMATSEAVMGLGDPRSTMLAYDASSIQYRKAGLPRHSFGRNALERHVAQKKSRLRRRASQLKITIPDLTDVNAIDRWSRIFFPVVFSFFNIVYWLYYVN
assay.explanation: Displacement of [3H]-Ro- 15-4513 from alpha-6 beta2 gamma2 subunits of Rat GABA-A receptor expressed in Sf-9 insect cell membranes
pKi: −log10 of the molar value.
Reported pKi is given for each of the following compounds.
experimental.endpoint: pKi

>>> result("O=C1CCC2c3c(-c4noc(C5CC5)n4)ncn3-c3ccccc3N12 (configuration not stated)")
7.88
>>> result("O=C1CCc2cccc3c2N1Cc1c(-c2noc(C4CC4)n2)ncn1-3")
"< 6.23"
>>> result("CN(C)C(=O)N1Cc2c(-c3noc(C4CC4)n3)ncn2-c2ccccc21")
7.88
>>> result("CC(C)(C)OC(=O)N1CC(=O)N2Cc3c(-c4noc(C5CC5)n4)ncn3-c3cccc1c32")
"< 6.23"
>>> result("O=C1CC(c2ccccc2)c2cccc3c2N1Cc1c(-c2noc(C4CC4)n2)ncn1-3 (configuration not stated)")
"< 6.23"
>>> result("COn1c(=O)n2c3c(cccc31)-n1cnc(-c3noc(C4CC4)n3)c1C2")
"< 6.23"
>>> result("O=C1OCc2cccc3c2N1Cc1c(-c2noc(C4CC4)n2)ncn1-3")
"< 6.23"
>>> result("O=C1CNc2cccc3c2N1Cc1c(-c2noc(C4CC4)n2)ncn1-3")
"< 6.23"
>>> result("CC(C)N1Cc2cccc3c2N(Cc2c(-c4noc(C5CC5)n4)ncn2-3)C1=O")
"< 6.23"
>>> result("CC1(C)CC(=O)N2Cc3c(-c4noc(C5CC5)n4)ncn3-c3cccc1c32")
"< 6.23"
>>> result("CC(C)n1c(=O)c2c(-c3noc(C4CC4)n3)ncn2c2ccccc21")
6.22
>>> result("CN1Cc2cccc3c2N(Cc2c(-c4noc(C5CC5)n4)ncn2-3)C1=O")
"< 6.23"

###

Ratio: recorded values
target.desc: GABA-A receptor; anion channel (Rattus norvegicus) (UniProt O09028+P15431+P18506+P18508+P19969+P20236+P23574+P23576+P28471+P28473+P30191+P62813+P63079+P63138+Q91ZM7+Q9ES14)
assay.explanation: Binding to GABA-A receptor complex relative to TBPS binding to picrotoxin convulsant site
Assay type: functional
experimental.endpoint: Ratio

>>> recorded_number("CC(C)N1Cc2cccc3c2N(Cc2c(-c4noc(C5CC5)n4)ncn2-3)C1=O")
0.41
>>> recorded_number("CN(C)C(=O)N1Cc2c(-c3noc(C4CC4)n3)ncn2-c2ccccc21")
0.69
>>> recorded_number("COn1c(=O)n2c3c(cccc31)-n1cnc(-c3noc(C4CC4)n3)c1C2")
0.68

Entry source: ChEMBL document CHEMBL1129735
